Data origin, for the record: ChEMBL document CHEMBL5360622

- target-or-test-system: Cyclin-dependent kinase 5/CDK5 activator 1 (Homo sapiens)
- Sequence (Q00535 whole entry): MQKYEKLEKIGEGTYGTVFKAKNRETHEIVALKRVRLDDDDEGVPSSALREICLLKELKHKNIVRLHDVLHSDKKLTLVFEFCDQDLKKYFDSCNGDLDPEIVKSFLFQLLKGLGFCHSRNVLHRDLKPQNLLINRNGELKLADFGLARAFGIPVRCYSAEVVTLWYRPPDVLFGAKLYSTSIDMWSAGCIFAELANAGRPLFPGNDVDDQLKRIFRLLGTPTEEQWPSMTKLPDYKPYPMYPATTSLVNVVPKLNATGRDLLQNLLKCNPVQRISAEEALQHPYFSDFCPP
- Sequence (Q15078 whole entry, further chain): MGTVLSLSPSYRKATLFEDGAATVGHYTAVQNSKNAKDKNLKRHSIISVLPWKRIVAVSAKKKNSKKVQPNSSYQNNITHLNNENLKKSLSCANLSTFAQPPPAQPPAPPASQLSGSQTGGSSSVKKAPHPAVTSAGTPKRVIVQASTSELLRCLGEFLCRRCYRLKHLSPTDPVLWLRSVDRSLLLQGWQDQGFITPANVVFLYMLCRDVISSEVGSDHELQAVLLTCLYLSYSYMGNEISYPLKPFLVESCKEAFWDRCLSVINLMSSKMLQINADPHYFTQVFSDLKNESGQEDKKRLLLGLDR
// values below are reported IC50

Known IC50 results, listed for orientation:
| compound | meas-value |
| --- | --- |
| O=C1NC(Nc2ccc(N3CCOCC3)cc2)=N/C1=C\c1ccc2ncsc2c1 | > 10 µM |
| O=C1NC(NC[C@@H](O)c2ccccc2)=N/C1=C\c1ccc2ncsc2c1 | > 10 µM |
| O=C1NC(N[C@@H]2CN3CCC2CC3)=N/C1=C\c1ccc2ncsc2c1 | > 10 µM |

## Task Return value of IC50 for input O=C1NC(NC2CCCCC2)=N/C1=C\c1ccc2[nH]cnc2c1 , no commentary.
## Result > 10 µM

## Task Return value of IC50 for input CN1CCN(c2ccc(NC3=N/C(=C\c4ccc5ncsc5c4)C(=O)N3)cc2)CC1 , no commentary.
## Result > 10 µM

## Task Return value of IC50 for input O=C1NC(N[C@@H]2c3ccccc3C[C@H]2O)=N/C1=C\c1ccc2ncsc2c1 , no commentary.
## Result > 10 µM

## Task Return value of IC50 for input O=C1NC(NCc2ccccc2OC(F)(F)F)=N/C1=C\c1ccc2ncsc2c1 , no commentary.
## Result > 10 µM

## Task Return value of IC50 for input O=C1NC(NC2CCCNC2=O)=N/C1=C\c1ccc2ncsc2c1 (racemic) , no commentary.
## Result > 10 µM

## Task Return value of IC50 for input O=C1NC(NC2CCCCCC2)=N/C1=C\c1ccc2[nH]cnc2c1 , no commentary.
## Result > 10 µM

## Task Return value of IC50 for input CC[C@@H](CO)NC1=N/C(=C\c2ccc3ncsc3c2)C(=O)N1 , no commentary.
## Result > 10 µM

## Task Return value of IC50 for input O=C1NC(Nc2cccnc2)=N/C1=C\c1ccc2ncsc2c1 , no commentary.
## Result > 10 µM

## Task Return value of IC50 for input O=C1NC(NC23CC4CC(CC(C4)C2)C3)=N/C1=C\c1ccc2scnc2c1 , no commentary.
## Result > 10 µM

====

- target-or-test-system: Dual specificity protein kinase CLK2 (Homo sapiens)
- Sequence (P49760 whole entry): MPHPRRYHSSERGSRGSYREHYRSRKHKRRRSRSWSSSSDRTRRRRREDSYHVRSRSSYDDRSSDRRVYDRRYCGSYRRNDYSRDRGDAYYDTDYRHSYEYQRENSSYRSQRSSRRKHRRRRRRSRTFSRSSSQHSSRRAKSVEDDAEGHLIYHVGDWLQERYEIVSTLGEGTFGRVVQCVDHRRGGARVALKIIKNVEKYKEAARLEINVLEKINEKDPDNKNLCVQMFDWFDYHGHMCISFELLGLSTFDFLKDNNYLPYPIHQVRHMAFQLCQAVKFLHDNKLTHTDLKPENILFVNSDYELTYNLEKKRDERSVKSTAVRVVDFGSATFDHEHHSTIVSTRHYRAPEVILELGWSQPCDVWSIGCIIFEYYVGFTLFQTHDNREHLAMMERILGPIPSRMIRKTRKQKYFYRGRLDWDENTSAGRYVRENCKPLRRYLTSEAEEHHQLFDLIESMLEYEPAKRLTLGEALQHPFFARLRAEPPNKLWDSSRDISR
reported-endpoint: IC50 (nM)
Numbers only; they are read as nM.

| compound | IC50, nM |
| --- | --- |
| O=C1NC(NC2COC2)=N/C1=C\c1ccc2ncsc2c1 | 614 |

Please examine the following record next.
## Task Return value of IC50 for input COC(=O)C1(NC2=N/C(=C\c3ccc4ncsc4c3)C(=O)N2)C2CC3CC(C2)CC1C3 (stereo not drawn) , no commentary.
## Result 531

====

- target-or-test-system: Glycogen synthase kinase-3 beta (Homo sapiens, UniProt P49841)
- Sequence (P49841 whole entry): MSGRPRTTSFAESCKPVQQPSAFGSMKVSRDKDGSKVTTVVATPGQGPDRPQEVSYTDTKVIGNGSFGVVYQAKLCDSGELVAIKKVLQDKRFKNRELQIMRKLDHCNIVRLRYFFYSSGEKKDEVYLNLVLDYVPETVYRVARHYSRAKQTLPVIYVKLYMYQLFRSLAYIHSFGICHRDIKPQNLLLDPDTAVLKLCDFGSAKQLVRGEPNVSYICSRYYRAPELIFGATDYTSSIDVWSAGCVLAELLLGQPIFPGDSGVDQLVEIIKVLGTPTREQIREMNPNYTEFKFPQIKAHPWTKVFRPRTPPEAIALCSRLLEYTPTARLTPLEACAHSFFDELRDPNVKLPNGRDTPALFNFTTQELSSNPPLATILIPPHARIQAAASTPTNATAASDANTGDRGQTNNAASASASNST
- Assay type: cell-based, Sf9
reported-endpoint: IC50 (µM)
Numbers only; they are read as µM.

| compound | output-unit | meas-value |
| --- | --- | --- |
| CN1CCN(c2ccc(NC3=N/C(=C\c4ccc5ncsc5c4)C(=O)N3)cc2)CC1 | µM | 0.999 |
| COc1nc(C)ccc1NC1=N/C(=C\c2ccc3ncsc3c2)C(=O)N1 | µM | 8.97 |
| O=C1NC(NC2CCCCC2(F)F)=N/C1=C\c1ccc2ncsc2c1 (racemic) | µM | 5.56 |

## Task Enter IC50 (test system Glycogen synthase kinase-3 beta (Homo sapiens, UniProt P49841)) for CC(C)C[C@H](COCc1ccccc1)NC1=N/C(=C\c2ccc3ncsc3c2)C(=O)N1
## Result 5.19

## Task Enter IC50 (test system Glycogen synthase kinase-3 beta (Homo sapiens, UniProt P49841)) for O=C1NC(NC2COC2)=N/C1=C\c1ccc2ncsc2c1
## Result 5.92

## Task Enter IC50 (test system Glycogen synthase kinase-3 beta (Homo sapiens, UniProt P49841)) for COCC(Cc1ccccc1)NC1=N/C(=C\c2ccc3ncsc3c2)C(=O)N1 (stereo not drawn)
## Result 4.25

## Task Enter IC50 (test system Glycogen synthase kinase-3 beta (Homo sapiens, UniProt P49841)) for O=C1NC(NC(CO)C2CCCCC2)=N/C1=C\c1ccc2ncsc2c1 (racemic)
## Result 4.16

====

// values below are reported pIC50
- target-or-test-system: Dual specificity tyrosine-phosphorylation-regulated kinase 2 (Homo sapiens, UniProt Q92630)
- Sequence (Q92630 whole entry): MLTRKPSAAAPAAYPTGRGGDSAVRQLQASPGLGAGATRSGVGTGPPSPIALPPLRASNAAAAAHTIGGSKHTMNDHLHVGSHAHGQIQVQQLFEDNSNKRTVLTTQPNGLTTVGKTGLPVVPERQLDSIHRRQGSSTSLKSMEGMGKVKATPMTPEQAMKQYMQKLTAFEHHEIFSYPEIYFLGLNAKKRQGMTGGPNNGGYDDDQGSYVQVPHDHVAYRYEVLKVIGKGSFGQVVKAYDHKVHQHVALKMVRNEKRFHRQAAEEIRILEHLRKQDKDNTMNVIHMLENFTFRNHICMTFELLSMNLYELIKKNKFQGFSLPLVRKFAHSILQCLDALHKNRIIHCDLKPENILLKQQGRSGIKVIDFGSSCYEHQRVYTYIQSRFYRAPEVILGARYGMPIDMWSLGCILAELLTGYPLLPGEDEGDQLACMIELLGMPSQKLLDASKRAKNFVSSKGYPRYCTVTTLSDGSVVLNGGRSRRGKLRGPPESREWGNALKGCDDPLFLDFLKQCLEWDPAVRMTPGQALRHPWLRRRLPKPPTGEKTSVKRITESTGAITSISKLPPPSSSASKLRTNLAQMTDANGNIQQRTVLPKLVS
# log scale: pIC50 equals minus log10 of the concentration in mol/L

Known pIC50 results, listed for orientation:
| compound | meas-value |
| --- | --- |
| O=C1NC(Nc2cccc(OC(F)F)c2)=N/C1=C\c1ccc2ncsc2c1 | 6.12 |
| CC1(C)CNC(=O)C1NC1=N/C(=C\c2ccc3ncsc3c2)C(=O)N1 (racemic) | 6.07 |
| COC(=O)C1(NC2=N/C(=C\c3ccc4ncsc4c3)C(=O)N2)C2CC3CC(C2)CC1C3 (centres undefined) | 6.15 |

## Task Return value of pIC50 for input O=C1NC(N[C@@H]2CCCC[C@H](O)C2)=N/C1=C\c1ccc2ncsc2c1 (racemic) , no commentary.
## Result 6.76

## Task Return value of pIC50 for input O=C1NC(NC2C3CC4CC(C3)CC2C4)=N/C1=C\c1ccc2ncsc2c1 (centres undefined) , no commentary.
## Result 6.24

## Task Return value of pIC50 for input O=C1NC(NC2CCCCCC2)=N/C1=C\c1ccc2[nH]cnc2c1 , no commentary.
## Result 5.66

## Task Return value of pIC50 for input CN1CCC(NC2=N/C(=C\c3ccc4ncsc4c3)C(=O)N2)CC1 , no commentary.
## Result 5.11

## Task Return value of pIC50 for input Cn1cc2cc(/C=C3\N=C(NC4CCCCCC4)NC3=O)ccc2n1 , no commentary.
## Result 5.82

## Task Return value of pIC50 for input O=C1NC(NCc2ccncc2)=N/C1=C\c1ccc2ncsc2c1 , no commentary.
## Result 6.21

## Task Return value of pIC50 for input CC(C)C[C@H](CO)NC1=N/C(=C\c2ccc3ncsc3c2)C(=O)N1 , no commentary.
## Result 6.02

## Task Return value of pIC50 for input Cc1nc2ccc(/C=C3\N=C(NC4CCCCCC4)NC3=O)cc2s1 , no commentary.
## Result 5.64

## Task Return value of pIC50 for input CO[C@H]1CC[C@H](NC2=N/C(=C\c3ccc4ncsc4c3)C(=O)N2)CC1 , no commentary.
## Result 5.64

## Task Return value of pIC50 for input O=C1NC(N[C@@H](CO)CC2CCC2)=N/C1=C\c1ccc2ncsc2c1 , no commentary.
## Result 5.72

## Task Return value of pIC50 for input CC(C)(C)NC(=O)OC12CC3CC(CC(NC4=N/C(=C\c5ccc6ncsc6c5)C(=O)N4)(C3)C1)C2 , no commentary.
## Result 6.83

## Task Return value of pIC50 for input COC(CNC1=N/C(=C\c2ccc3ncsc3c2)C(=O)N1)c1ccccc1 (racemic) , no commentary.
## Result 6.45

====

// values below are reported pIC50
- target-or-test-system: UniProtKB Q9NR20
- Sequence (Q9NR20 whole entry): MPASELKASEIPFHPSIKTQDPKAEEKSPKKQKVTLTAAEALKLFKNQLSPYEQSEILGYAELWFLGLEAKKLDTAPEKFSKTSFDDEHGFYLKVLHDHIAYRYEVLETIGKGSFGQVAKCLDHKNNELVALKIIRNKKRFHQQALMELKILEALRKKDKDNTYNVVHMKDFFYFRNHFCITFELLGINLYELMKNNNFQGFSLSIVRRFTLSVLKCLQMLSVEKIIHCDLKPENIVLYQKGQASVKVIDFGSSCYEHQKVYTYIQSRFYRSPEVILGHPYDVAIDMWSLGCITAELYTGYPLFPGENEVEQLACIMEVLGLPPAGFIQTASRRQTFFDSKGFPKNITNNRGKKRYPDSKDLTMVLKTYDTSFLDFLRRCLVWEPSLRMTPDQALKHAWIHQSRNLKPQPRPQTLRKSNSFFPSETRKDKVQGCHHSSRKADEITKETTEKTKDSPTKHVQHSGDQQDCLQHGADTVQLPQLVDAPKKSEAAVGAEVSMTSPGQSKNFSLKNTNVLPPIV
pIC50: −log10 of the molar value.

| smiles-notation | target-or-test-system | pIC50 |
| --- | --- | --- |
| Cc1nc2ccc(/C=C3\N=C(NC4CCCCCC4)NC3=O)cc2s1 | UniProtKB Q9NR20 | < 5.00 |
| CN1CCN(c2cnc(NC3=N/C(=C\c4ccc5ncsc5c4)C(=O)N3)nc2)CC1 | UniProtKB Q9NR20 | < 5.00 |
| Cn1ncc2cc(/C=C3\N=C(NC4CCCCC4)NC3=O)ccc21 | UniProtKB Q9NR20 | < 5.00 |

## Task Return value of pIC50 for input Cn1cnc2cc(/C=C3\N=C(NC45CC6CC(CC(C6)C4)C5)NC3=O)ccc21 , no commentary.
## Result < 5.00

## Task Return value of pIC50 for input Cn1cnc2cc(/C=C3\N=C(NC4CCCCC4)NC3=O)ccc21 , no commentary.
## Result < 5.00

## Task Return value of pIC50 for input O=C1NC(NCc2cccnc2)=N/C1=C\c1ccc2ncsc2c1 , no commentary.
## Result 5.86

## Task Return value of pIC50 for input CN1CCN(c2cnc(NC3=N/C(=C\c4ccc5ncsc5c4)C(=O)N3)cn2)CC1 , no commentary.
## Result 5.95
